Consider the following binders and their measured Kd readings.
- systemTested: T1, recombinant human CLL-1 extracellular domain (ECD, amino acids 65-265) fused to an N-terminal Flag (human, UniProt Q5QGZ9 65-265)
- T1 construct: The construct and the K244Q SNP are stated for the immunogen; they are not written as a piece; also called huCLL-1-Flag; huCLL-1
- T1 chain: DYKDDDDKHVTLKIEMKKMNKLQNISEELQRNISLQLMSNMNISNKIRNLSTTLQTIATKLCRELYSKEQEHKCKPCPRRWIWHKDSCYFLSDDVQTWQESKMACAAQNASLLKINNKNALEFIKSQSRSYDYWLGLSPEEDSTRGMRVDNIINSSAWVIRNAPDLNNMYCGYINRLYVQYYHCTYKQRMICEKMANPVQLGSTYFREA
- testProtocol: affinity column of the TDB summary table (rounded Biacore KD of the second the 8th table / the 4th table tables)

binder	uom	Kd
ch20B1 (antibody, V domains shown, chimeric version of m20B1, human IgG; also called chimeric 20B1; 2061 [sic]) VH: EVQLQQSGPELVKPGALVKISCKASGYTFTSYDINWLKQRPGQGLEWIGWIYPGDGTTEYNERFKGKATLTADKSSSTAYLQLSSLTSENSAVYFCARSYDYDYAMDYWGQGTSVTVSS VL: DIVLTQSPAIMSASPGEKVTMTCSASSSISYMYWYQQKPGTSPKRWIYDTSKLASGVPARFSGSGSGTSYSLTISSMEAEDAATYYCHQRSSWTFGGGTKLEIK	nM	4.5
ch28H12 (antibody, V domains shown, chimeric version of m28H12, human IgG; also called chimeric 28H12) VH: QVQLQQSGAELVKPGASVKLSCTASGFNIKDTYMHWVKQRPEQGLEWIGRIDPANGDTDYDPKFQGKATVTADTSSNTAYLQLSSLTSEDTAVYYCTISGPPYYVMDYWGQGTSVTVSS VL: DIQMTQSPASLAVSLGQRATISCRASQSVSSSSYSYMHWYQQKPGQPPKLLIKYASNLESGVPARFSGRGSGTDFTLNIHPVEEEDTATYYCQHSWEIPYTFGGGTRLEIK	nM	18
6E7.L4H1e (antibody, V domains shown, humanized, assessed in the form of an IgG; also called humanized 6E7.L4H1e; h6E7) VH: EVQLVQSGAEVKKPGASVKVSCKASGYSFTDYYMHWVRQAPGQGLEWIGRINPYNGAAFYSQNFKDRVTLTVDTSTSTAYLELSSLRSEDTAVYYCAIERGADLEGYAMDYWGQGTLVTVSS VL: DIQMTQSPSSLSASVGDRVTITCRASQSVSTSSYNYMHWYQQKPGKPPKLLIKYASNLESGVPSRFSGSGSGTDFTLTISSLQPEDFATYYCQHSWEIPLTFGQGTKVEIK	nM	1.1
6E7.L4H1eD54 (antibody, V domains shown, IgG; also called h6E7D; H6E7.L4H1D54) VH: EVQLVQSGAEVKKPGASVKVSCKASGYSFTDYYMHWVRQAPGQGLEWIGRINPYDGAAFYSQNFKDRVTLTVDTSTSTAYLELSSLRSEDTAVYYCAIERGADLEGYAMDYWGQGTLVTVSS VL: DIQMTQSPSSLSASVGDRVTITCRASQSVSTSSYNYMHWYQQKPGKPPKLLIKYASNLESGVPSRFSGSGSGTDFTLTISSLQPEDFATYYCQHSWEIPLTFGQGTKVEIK	nM	113
